# test_system: CDK7 (Homo sapiens)
# Sequence (P50613 whole entry): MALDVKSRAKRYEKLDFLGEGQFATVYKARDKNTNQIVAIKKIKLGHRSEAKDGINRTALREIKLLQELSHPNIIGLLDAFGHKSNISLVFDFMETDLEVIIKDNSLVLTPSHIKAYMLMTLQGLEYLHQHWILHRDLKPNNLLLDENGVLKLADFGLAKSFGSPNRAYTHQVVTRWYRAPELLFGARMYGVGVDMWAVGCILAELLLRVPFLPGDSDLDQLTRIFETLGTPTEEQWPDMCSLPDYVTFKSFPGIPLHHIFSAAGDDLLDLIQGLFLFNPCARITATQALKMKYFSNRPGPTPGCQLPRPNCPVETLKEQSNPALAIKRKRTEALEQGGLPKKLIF
# Sequence (P51946 whole entry partner): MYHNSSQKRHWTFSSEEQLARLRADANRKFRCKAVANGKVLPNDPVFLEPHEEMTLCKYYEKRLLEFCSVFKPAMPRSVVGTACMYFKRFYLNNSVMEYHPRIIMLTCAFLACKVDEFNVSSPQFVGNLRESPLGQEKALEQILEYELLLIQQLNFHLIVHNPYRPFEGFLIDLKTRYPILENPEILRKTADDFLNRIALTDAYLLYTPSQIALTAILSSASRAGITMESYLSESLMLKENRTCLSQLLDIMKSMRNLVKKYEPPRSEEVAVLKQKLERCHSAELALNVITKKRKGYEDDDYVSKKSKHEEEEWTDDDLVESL
# Sequence (P51948 whole entry partner): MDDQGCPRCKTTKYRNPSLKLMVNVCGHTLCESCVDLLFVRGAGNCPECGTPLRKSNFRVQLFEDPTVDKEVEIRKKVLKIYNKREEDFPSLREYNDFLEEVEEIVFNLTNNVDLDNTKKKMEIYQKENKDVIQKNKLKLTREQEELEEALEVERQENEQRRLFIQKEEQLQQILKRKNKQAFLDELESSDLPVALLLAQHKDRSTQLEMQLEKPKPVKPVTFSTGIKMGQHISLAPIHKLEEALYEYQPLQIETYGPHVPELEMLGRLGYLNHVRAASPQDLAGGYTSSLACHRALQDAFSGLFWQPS
pIC50: −log10 of the molar value.
Documented pIC50 across a set of compounds
attribute_measured: pIC50

• C=CC(=O)N1CCC(CN[C@H]2CCC[C@@H](Nc3ncc(Cl)c(-c4c[nH]c5ccccc45)n3)C2)CC1 [Compound 124] = > 7.00
• CN(C)C/C=C/C(=O)NCCc1cc2ccc(Nc3ncc(Cl)c(-c4c[nH]c5ccccc45)n3)cc2[nH]1 [Compound 175] = > 7.00
• C=CC(=O)N1CCC(C(=O)N2CC[C@@H](Nc3ncc(Cl)c(-c4c[nH]c5ccccc45)n3)C2)CC1 [Compound 214] = 6.00 to 7.00
• O=C(Nc1cccc(Nc2ncc(Cl)c(-c3c[nH]c4ccccc34)n2)c1)[C@H]1CCCNC1 [Compound 1005] = > 7.00
• C=CC(=O)N1CC(F)(F)C[C@H]1C(=O)N[C@H]1CCC[C@@H](Nc2ncc(Cl)c(-c3c[nH]c4ccccc34)n2)C1 [Compound 116] = > 7.00
• NCC(F)(F)C(=O)N[C@H]1CCC[C@@H](Nc2ncc(Cl)c(-c3c[nH]c4ccccc34)n2)C1 [Compound 1010] = > 7.00
• C=CC(=O)N1CCC[C@@H]1C(=O)N[C@H]1CCC[C@@H](Nc2ncc(Cl)c(-c3c[nH]c4ccccc34)n2)C1 [Compound 173] = > 7.00
• CN(C)C/C=C/C(=O)Nc1ccc(C(=O)N[C@H]2CCC[C@@H](Nc3ncc(C#N)c(-c4c[nH]c5ccccc45)n3)C2)nc1 [Compound 110] = > 7.00
• CN(C)C/C=C/C(=O)N1CC[C@@H](Nc2ncc(Cl)c(-c3c[nH]c4ccccc34)n2)C1 [Compound 176] = > 7.00
• C=CC(=O)NC12CC(C(=O)Nc3cccc(Nc4ncc(Cl)c(-c5c[nH]c6ccccc56)n4)c3)(C1)C2 (racemic) [Compound 108] = < 6.00
• CN(C)C/C=C/C(=O)NCC(F)(F)C(=O)N[C@H]1CCC[C@@H](Nc2ncc(Cl)c(-c3c[nH]c4ccccc34)n2)C1 [Compound 111] = > 7.00
• C=CC(=O)N1CCCC(C(=O)N[C@H]2CC[C@H](Nc3ncc(Cl)c(-c4c[nH]c5ccccc45)n3)CC2)C1 (stereo partly drawn) [Compound 158] = > 7.00
• CN(C)CC=CC(=O)N1CCCC(CNC2CCC(Nc3ncc(Cl)c(-c4c[nH]c5ccccc45)n3)CC2)C1 (racemic) [compound 194] = 6.00 to 7.00
• CN(C)C/C=C/C(=O)Nc1ccc(C(=O)N[C@H]2CCC[C@@H](Nc3ncc(C(F)(F)F)c(-c4c[nH]c5ccccc45)n3)C2)nc1 [Compound 248] = > 7.00
• CN(C)C/C=C/C(=O)N1CCC(C(=O)Nc2cccc(Nc3ncc(Cl)c(-c4c[nH]c5ccccc45)n3)c2)CC1 [Compound 105] = > 7.00
• CN(C)C/C=C/C(=O)N1CCC[C@H](C(=O)Nc2cccc(Nc3ncc(Cl)c(-c4c[nH]c5ccccc45)n3)c2)C1 [Compound 104] = > 7.00
• Nc1ccc(C(=O)N[C@H]2CCC[C@@H](Nc3ncc(Cl)c(-c4c[nH]c5ccccc45)n3)C2)nc1 [Compound 1007] = > 7.00
• C=CC(=O)N1CCC(NC(=O)N2CCC[C@@H](Nc3ncc(Cl)c(-c4c[nH]c5ccccc45)n3)C2)CC1 [Compound 205] = 6.00 to 7.00
• CN(C)C/C=C/C(=O)N1CCC(C(=O)N2CC[C@@H](Nc3ncc(Cl)c(-c4c[nH]c5ccccc45)n3)C2)CC1 [Compound 213] = > 7.00
• C=CC(=O)N1CCC(C(=O)N[C@H]2CCC[C@@H](Nc3ncc(Cl)c(-c4c[nH]c5ccccc45)n3)C2)CC1 [Compound 118] = > 7.00
• C=CC(=O)N1CCC(NC[C@@H]2CCC[C@H](Nc3ncc(Cl)c(-c4c[nH]c5ccccc45)n3)C2)CC1 [Compound 212] = > 7.00
